- Target: dopamine receptor DopEcR (Helicoverpa armigera)
- Procedure Summary: biochemical
- Sequence (A0A386QW71 1-343): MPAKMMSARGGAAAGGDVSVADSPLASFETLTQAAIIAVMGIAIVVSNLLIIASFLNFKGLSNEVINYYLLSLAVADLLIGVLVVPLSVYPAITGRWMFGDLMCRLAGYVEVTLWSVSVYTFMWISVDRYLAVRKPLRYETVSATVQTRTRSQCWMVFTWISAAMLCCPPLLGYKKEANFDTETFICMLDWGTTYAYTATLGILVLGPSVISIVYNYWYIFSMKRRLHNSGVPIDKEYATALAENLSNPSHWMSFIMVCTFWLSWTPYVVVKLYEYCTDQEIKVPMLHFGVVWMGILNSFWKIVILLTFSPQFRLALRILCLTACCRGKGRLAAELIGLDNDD
pKd: −log10 of the molar value.
Parameter: pKd

| Molecule | Endpoint Value |
| --- | --- |
| NCCc1ccc(O)c(O)c1 [DA, dopamine] | 6.35 |

---

- Target: dopamine receptor DopEcR (Helicoverpa armigera, UniProt A0A386QW71)
- Construct: DopEcR-GFP-His (GenBank MG596302), isolated from Sf9 cells
- Procedure Summary: saturation binding with isolated receptor, […] enzyme immunoassay; also displacement of DA (Ki […])

| Compound | Target | Kd |
| --- | --- | --- |
| CC(C)(O)CC[C@@H](O)[C@](C)(O)[C@H]1CC[C@@]2(O)C3=CC(=O)[C@@H]4C[C@@H](O)[C@@H](O)C[C@]4(C)[C@H]3CC[C@]12C [20E, 20-hydroxyecdysone] | dopamine receptor DopEcR (Helicoverpa armigera, UniProt A0A386QW71) | 18 nM |

These data points were gathered from paper PMC6693746.
